# System: carbapenemase producing K. pneumoniae
# test.method.notes: MIC by broth micro-dilution (CLSI), carbapenemase producing K. pneumoniae
# Format: cell-based, Klebsiella pneumoniae
# reported.conditions: Klebsiella pneumoniae, ATCCBAA1705, KPC-2 K. pneumoniae ATCC BAA-1705; read-out: MIC
measured.endpoint: MIC (µg/mL)

molecule	measurement.unit	censoring.qualifier	measured.value
C[C@@H](NC(=O)C1(C(F)(F)F)CC1)[C@H]1C(=O)N2C(C(=O)O)=C(S[C@@H]3CN[C@H](C(=O)N(C)C)C3)[C@H](C)[C@H]12	µg/mL	=	32
C[C@@H](NC(=O)Cn1cnnn1)[C@H]1C(=O)N2C(C(=O)O)=C(S[C@@H]3CN[C@H](C(=O)N4CC5CCN(CCN)C5C4)C3)[C@H](C)[C@H]12 (single isomer, unassigned)	µg/mL	=	1
C[C@@H](NC(=O)C(F)F)[C@H]1C(=O)N2C(C(=O)O)=C(Sc3nc(-c4cc[n+](C)cc4)cs3)[C@H](C)[C@H]12	µg/mL	>	128
CCS(=O)(=O)N[C@H](C)[C@H]1C(=O)N2C(C(=O)O)=C(S[C@@H]3CN[C@H](C(=O)N(C)C)C3)[C@H](C)[C@H]12	µg/mL	=	4
C[C@@H](NC(=O)C(F)F)[C@H]1C(=O)N2C(C(=O)O)=C(S[C@@H]3CN[C@H](CNS(C)(=O)=O)C3)[C@H](C)[C@H]12	µg/mL	=	2

====

# System: carbapenemase producing K. pneumoniae
# test.method.notes: MIC by broth micro-dilution (CLSI), carbapenemase producing K. pneumoniae
# Type: cell-based, Klebsiella pneumoniae
# reported.conditions: Klebsiella pneumoniae, ATCCBAA1705, KPC-2 K. pneumoniae ATCC BAA-1705; read-out: MIC
Overview of reported MIC across a group of molecules:

compound.structure.string	MIC, µg/mL
C[C@@H](NC(=O)Cn1cnnn1)[C@H]1C(=O)N2C(C(=O)O)=C(S[C@@H]3CN[C@H](C(=O)N4C[C@@H](N)C[C@H]4CNS(C)(=O)=O)C3)[C@H](C)[C@H]12	2
C[C@@H](NC(=O)Cn1nnc(C(F)(F)F)n1)[C@H]1C(=O)N2C(C(=O)O)=C(S[C@@H]3CN[C@H](C(=O)N(C)C)C3)[C@H](C)[C@H]12	64
CNC(=O)C(=O)N[C@H](C)[C@H]1C(=O)N2C(C(=O)O)=C(S[C@@H]3CN[C@H](C(=O)N(C)C)C3)[C@H](C)[C@H]12	16
C[C@@H](NC(=O)Cn1cnnn1)[C@H]1C(=O)N2C(C(=O)O)=C(S[C@@H]3CN[C@H](C(=O)N4CC[C@@H](NC(=O)CCN)C4)C3)[C@H](C)[C@H]12	2
C[C@@H](NC(=O)Cn1cnnn1)[C@H]1C(=O)N2C(C(=O)O)=C(CN3C[C@H](NC(=N)N)[C@@H](O)C3)[C@H](C)[C@H]12	4

====

# Test system: carbapenemase producing K. pneumoniae
# test.method.notes: MIC by broth micro-dilution (CLSI), carbapenemase producing K. pneumoniae
# Assay type: cell-based, Klebsiella pneumoniae
# reported.conditions: Klebsiella pneumoniae, ATCCBAA1705, KPC-2 K. pneumoniae ATCC BAA-1705; read-out: MIC
Overview of reported MIC across a group of molecules:

molecule	measurement.unit	MIC
C[C@@H](NC(=O)Cn1cnnn1)[C@H]1C(=O)N2C(C(=O)O)=C(S[C@@H]3CN[C@H](C(=O)N4CCCCC45CCNCC5)C3)[C@H](C)[C@H]12	µg/mL	2
C[C@@H](NC(=O)CN(C)C(=N)N)[C@H]1C(=O)N2C(C(=O)O)=C(S[C@@H]3CN[C@H](C(=O)N4CC[C@@H](N)C4)C3)[C@H](C)[C@H]12	µg/mL	4
C[C@H]([C@H]1C(=O)N2C(C(=O)O)=C(SC3CN[C@H](C(=O)N4CCNCC4)C3)[C@H](C)[C@H]12)n1cc(CF)nn1 (stereo partly drawn)	µg/mL	8
